biological target: TLK1 (human) (UniProt Q9UKI8); assay: KINOMEscan competition binding; conditions: compound 10.0 µM
Sequence (Q9UKI8 whole entry, looked up): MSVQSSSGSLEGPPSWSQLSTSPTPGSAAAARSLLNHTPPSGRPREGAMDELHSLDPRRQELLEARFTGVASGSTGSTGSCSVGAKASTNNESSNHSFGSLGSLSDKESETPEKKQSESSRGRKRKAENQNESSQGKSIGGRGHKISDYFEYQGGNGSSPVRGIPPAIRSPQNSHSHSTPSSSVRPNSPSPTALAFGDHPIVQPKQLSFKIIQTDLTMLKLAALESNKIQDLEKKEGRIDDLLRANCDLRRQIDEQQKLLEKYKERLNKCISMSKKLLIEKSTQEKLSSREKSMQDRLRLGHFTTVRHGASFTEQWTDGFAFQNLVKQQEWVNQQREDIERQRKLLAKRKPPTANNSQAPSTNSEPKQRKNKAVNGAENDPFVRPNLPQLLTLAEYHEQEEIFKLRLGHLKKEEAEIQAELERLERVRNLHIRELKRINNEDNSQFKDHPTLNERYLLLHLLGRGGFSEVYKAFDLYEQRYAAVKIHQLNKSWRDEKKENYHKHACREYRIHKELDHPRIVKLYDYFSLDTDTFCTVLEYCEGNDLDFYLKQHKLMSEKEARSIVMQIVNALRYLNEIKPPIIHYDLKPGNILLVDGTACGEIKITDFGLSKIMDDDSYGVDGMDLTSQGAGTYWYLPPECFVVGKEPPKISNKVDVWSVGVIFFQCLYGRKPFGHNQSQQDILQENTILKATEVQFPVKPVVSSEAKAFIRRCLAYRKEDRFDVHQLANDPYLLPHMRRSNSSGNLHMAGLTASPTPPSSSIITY
valueType: kinase still bound, per cent of control (%)
Reply numerically in %, unit not repeated.

Please state recorded kinase still bound, per cent of control (tested on TLK1 (human) (UniProt Q9UKI8)) of `Nc1ccc(-c2ccc3ncc4ccc(=O)n(-c5cccc(C(F)(F)F)c5)c4c3c2)cn1`
90

Look up kinase still bound, per cent of control with TLK1 (human) (UniProt Q9UKI8) for this molecule: `O=C1Nc2ccc(I)cc2/C1=C/c1cc(Br)c(O)c(Br)c1`
100

# value lookup — system TLK1 (human) (UniProt Q9UKI8), readout kinase still bound, per cent of control, item `Cc1cc([C@@H](C)Nc2ccccc2C(=O)O)c2nc(N3CCOCC3)cc(=O)n2c1`
96

Give the reported kinase still bound, per cent of control for COc1cc(C(=O)NC2CCN(C)CC2)ccc1Nc1ncc2c(n1)N(C1CCCC1)C(C)CC(=O)N2C (stereo unspecified) (system: TLK1 (human) (UniProt Q9UKI8)).
100

What value of kinase still bound, per cent of control on TLK1 (human) (UniProt Q9UKI8) does `CCCS(=O)(=O)Nc1ccc(F)c(C(=O)c2c[nH]c3ncc(-c4ccc(Cl)cc4)cc23)c1F` have?
95

Give kinase still bound, per cent of control (TLK1 (human) (UniProt Q9UKI8)) of the following molecule: `Cc1ccc2nc(NCCN)c3ncc(C)n3c2c1`
82

###

target: STK35 (human); assay: KINOMEscan competition binding; details: compound 10.0 µM
valueType: kinase still bound, per cent of control (%)
Response body: numeric value in %, unit text excluded.

Param item = `O=C(NC1CC1)c1cccc(-c2ccc3c(NC(=O)C4CC4)n[nH]c3c2)c1` ; retrieve measured kinase still bound, per cent of control.
16

What does the data say about its kinase still bound, per cent of control? Entry: `CC[C@@H]1C(=O)N(C)c2cnc(Nc3ccc(C(=O)NC4CCN(C)CC4)cc3OC)nc2N1C1CCCC1`
100

Would you mind telling me what kinase still bound, per cent of control value was observed for `CN(C)C/C=C/C(=O)Nc1cccc(Nc2ncc3c(n2)N(C)c2ccccc2C(=O)N3C)c1` ?
89

# lookup: kinase still bound, per cent of control of `COc1cc(C(=O)NC2CCN(C)CC2)ccc1Nc1ncc2c(n1)N(C1CCCC1)CCC(=O)N2C(C)C`
100

What value of measured kinase still bound, per cent of control is listed for `COc1cc(N2CCN(C)CC2)ccc1Nc1nc(N)c(C(=O)c2c(Cl)cccc2Cl)s1` ?
100

###

tested on: FLT3 (human), P36888 [N841I]; assay: KINOMEscan competition binding; conditions: compound 10.0 µM
For each of the molecules below, state its kinase still bound, per cent of control.
Give your result in % as a bare value.

So what's the measured kinase still bound, per cent of control for this one? `Cc1ccc(NC(=O)c2cccc(C(C)(C)C#N)c2)cc1Nc1ccc2ncn(C)c(=O)c2c1`
62

Could you share which kinase still bound, per cent of control value was measured for `CC(=O)c1c(C)c2cnc(Nc3ccc(N4CCNCC4)cn3)nc2n(C2CCCC2)c1=O` ?
2.1

Which kinase still bound, per cent of control value is on record for `CN(C)C/C=C/C(=O)Nc1ccc(C(=O)Nc2cccc(Nc3nccc(-c4cccnc4)n3)c2)cc1` ?
31

Bench note: what kinase still bound, per cent of control did `CCOc1cc2ncc(C#N)c(Nc3ccc(OCc4ccccn4)c(Cl)c3)c2cc1NC(=O)/C=C/CN(C)C` show?
64

Would you kindly share the measured kinase still bound, per cent of control for `CNC(=O)Nc1ccc(-c2nc(N3CC4CCC(C3)O4)c3cnn(C4CCC5(CC4)OCCO5)c3n2)cc1` ?
89

Dear colleague, I am looking for the recorded kinase still bound, per cent of control of the following molecule: `NC(=O)Nc1cc(-c2cccc(F)c2)sc1C(=O)N[C@@H]1CCCNC1`
0

Quick one: kinase still bound, per cent of control for `COc1cc2c(Nc3ccc(NC(=O)c4ccccc4)cc3)ncnc2cc1OCCCN1CCOCC1` ?
6

Endpoint output: kinase still bound, per cent of control of `Cc1n[nH]c2ccc(-c3cncc(OC[C@@H](N)Cc4c[nH]c5ccccc45)c3)cc12` . Value?
0.1

# query: kinase still bound, per cent of control of entry `COCC(=O)NC/C=C/c1ccc2ncnc(Nc3ccc(Oc4ccc(C)nc4)c(C)c3)c2c1`
79

Name the recorded kinase still bound, per cent of control for `CCN1CCN(C(=O)Cc2ccc(Nc3ncc(F)c(Nc4ccc(C(=O)Nc5ccccc5Cl)cc4)n3)cc2)CC1` .
0

Record request: kinase still bound, per cent of control value, item `CCN1CCN(Cc2ccc(Nc3ncc4c(n3)N(C)c3ccccc3C(=O)N4C)cc2C(F)(F)F)CC1`
21

Which kinase still bound, per cent of control is listed for `CCOc1cc(N2CCC(O)CC2)ccc1Nc1ncc2c(n1)N(C)c1ccccc1C(=O)N2C` ?
100

Suppose we examine the molecule `CC[C@@H]1C(=O)N(C)c2cnc(Nc3ccc(C(=O)NC4CCN(C)CC4)cc3OC)nc2N1C1CCCC1` ; what kinase still bound, per cent of control value has been reported?
100

Would you kindly share the measured kinase still bound, per cent of control for `CS(=O)(=O)N1CCN(Cc2cc3nc(-c4cccc5[nH]ncc45)nc(N4CCOCC4)c3s2)CC1` ?
100

State the recorded kinase still bound, per cent of control for this entry: `CCN1CCN(Cc2ccc(NC(=O)c3ccc(C)c(/C=C/c4cnc5[nH]ccc5c4OC)c3)cc2C(F)(F)F)CC1`
0.25

// query kinase still bound, per cent of control value for entry `CN(C)C/C=C/C(=O)Nc1cccc(Nc2ncc3c(n2)N(C)c2ccccc2C(=O)N3C)c1`
9.2

kinase still bound, per cent of control for COc1cc(C(=O)NC2CCN(C)CC2)ccc1Nc1ncc2c(n1)N(C1CCCC1)C(C)CC(=O)N2C (stereo not drawn) ?
100

# query: kinase still bound, per cent of control of entry `CCN(CCO)CCCOc1ccc2c(Nc3cc(CC(=O)Nc4cccc(F)c4)[nH]n3)ncnc2c1`
0.15

###

target: TLK2 (human) (UniProt Q86UE8); assay: KINOMEscan competition binding; conditions: compound 10.0 µM
Sequence (Q86UE8 whole entry, looked up): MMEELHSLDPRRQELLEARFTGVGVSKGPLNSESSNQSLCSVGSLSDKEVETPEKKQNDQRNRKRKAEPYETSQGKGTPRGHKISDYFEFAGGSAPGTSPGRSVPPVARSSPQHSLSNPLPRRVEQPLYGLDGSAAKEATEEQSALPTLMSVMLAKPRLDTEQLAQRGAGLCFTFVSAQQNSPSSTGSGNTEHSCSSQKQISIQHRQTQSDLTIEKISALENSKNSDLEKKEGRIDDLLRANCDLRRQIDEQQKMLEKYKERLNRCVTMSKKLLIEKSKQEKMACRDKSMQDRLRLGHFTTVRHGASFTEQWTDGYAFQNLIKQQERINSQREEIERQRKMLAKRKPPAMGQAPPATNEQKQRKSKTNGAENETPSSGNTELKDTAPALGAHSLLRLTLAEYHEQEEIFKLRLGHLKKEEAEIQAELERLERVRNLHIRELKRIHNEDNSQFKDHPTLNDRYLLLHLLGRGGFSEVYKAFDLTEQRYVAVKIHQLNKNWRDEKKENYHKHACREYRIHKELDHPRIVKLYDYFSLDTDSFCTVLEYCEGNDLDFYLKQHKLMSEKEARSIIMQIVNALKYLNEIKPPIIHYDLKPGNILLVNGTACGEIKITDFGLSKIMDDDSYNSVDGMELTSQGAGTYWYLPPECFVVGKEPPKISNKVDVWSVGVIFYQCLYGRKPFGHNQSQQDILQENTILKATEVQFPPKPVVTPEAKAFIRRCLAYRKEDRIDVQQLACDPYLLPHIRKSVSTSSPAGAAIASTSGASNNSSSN
For each entry below, report its kinase still bound, per cent of control value.
Just the number in %, nothing appended.

Can you look up kinase still bound, per cent of control on TLK2 (human) (UniProt Q86UE8) for `OCCCNc1cc(-c2ccnc(Nc3cccc(Cl)c3)n2)ccn1` ?
100

Under TLK2 (human) (UniProt Q86UE8): kinase still bound, per cent of control value of `CCCS(=O)(=O)Nc1ccc(F)c(C(=O)c2c[nH]c3ncc(-c4ccc(Cl)cc4)cc23)c1F` ?
94

Checklist item: kinase still bound, per cent of control tested on TLK2 (human) (UniProt Q86UE8), entry `O=C1Nc2ccc(I)cc2/C1=C/c1cc(Br)c(O)c(Br)c1` , value?
83

Entry `C=CC(=O)Nc1cccc(Nc2nc(N[C@H]3CC[C@H](N(C)C)CC3)nc3c2ncn3C(C)C)c1` , system TLK2 (human) (UniProt Q86UE8): what kinase still bound, per cent of control was measured?
100

Could you share what kinase still bound, per cent of control was measured for `Cc1cc([C@@H](C)Nc2ccccc2C(=O)O)c2nc(N3CCOCC3)cc(=O)n2c1` , tested on TLK2 (human) (UniProt Q86UE8)?
88

Query for TLK2 (human) (UniProt Q86UE8): what kinase still bound, per cent of control does the record show for `Cc1ccc(C(=O)Nc2cccc(C(F)(F)F)c2)cc1Nc1cncc(C(N)=O)c1` ?
100

Under TLK2 (human) (UniProt Q86UE8): kinase still bound, per cent of control value of `COc1cc(C(=O)NC2CCN(C)CC2)ccc1Nc1ncc2c(n1)N(C1CCCC1)CCC(=O)N2C(C)C` ?
100

Please state recorded kinase still bound, per cent of control (tested on TLK2 (human) (UniProt Q86UE8)) of `Cc1ccc2nc(NCCN)c3ncc(C)n3c2c1`
88

Give TLK2 (human) (UniProt Q86UE8) kinase still bound, per cent of control for `CCC(=O)N1CCN(c2ccc(-n3c(=O)ccc4cnc5ccc(-c6cnc7ccccc7c6)cc5c43)cc2C(F)(F)F)CC1`
100

Requested read-out kinase still bound, per cent of control, target or system TLK2 (human) (UniProt Q86UE8), entry `CCN1CCN(Cc2ccc(Nc3ncc4c(n3)N(C)c3ccccc3C(=O)N4C)cc2C(F)(F)F)CC1`
89

Item: `O=C(NC1CC1)c1cccc(-c2ccc3c(NC(=O)C4CC4)n[nH]c3c2)c1` Test system: TLK2 (human) (UniProt Q86UE8) Read-out: kinase still bound, per cent of control Value: ?
79

Notebook: pull reported kinase still bound, per cent of control for TLK2 (human) (UniProt Q86UE8), entry COc1cc(C(=O)NC2CCN(C)CC2)ccc1Nc1ncc2c(n1)N(C1CCCC1)C(C)CC(=O)N2C (centres undefined)
100

Record `COc1cc(N2CCN(C)CC2)ccc1Nc1nc(N)c(C(=O)c2c(Cl)cccc2Cl)s1` : what is its kinase still bound, per cent of control with TLK2 (human) (UniProt Q86UE8)?
93

Item: `C[C@@H](Oc1cc(-n2cnc3ccc(CN4CCN(C)CC4)cc32)sc1C(N)=O)c1ccccc1C(F)(F)F` Test system: TLK2 (human) (UniProt Q86UE8) Read-out: kinase still bound, per cent of control Value: ?
94

What measured kinase still bound, per cent of control is associated with `C=CC(=O)Nc1cccc(Oc2nc(Nc3ccc(N4CCN(C)CC4)cc3OC)ncc2Cl)c1` on TLK2 (human) (UniProt Q86UE8)?
100

Given the entry `Cc1ccc(NC(=O)c2cccc(C(C)(C)C#N)c2)cc1Nc1ccc2ncn(C)c(=O)c2c1` , what kinase still bound, per cent of control was observed with TLK2 (human) (UniProt Q86UE8)?
100

Please state recorded kinase still bound, per cent of control (tested on TLK2 (human) (UniProt Q86UE8)) of `O=C(O)c1ccc(Nc2ncc3c(n2)-c2ccc(Cl)cc2C(c2c(F)cccc2F)=NC3)cc1`
83

API: value(readout=kinase still bound, per cent of control, system=TLK2 (human) (UniProt Q86UE8)) for record `O=C(NOC[C@H](O)CO)c1ccc(F)c(F)c1Nc1ccc(I)cc1F`
98

Give kinase still bound, per cent of control (TLK2 (human) (UniProt Q86UE8)) of the following molecule: `Cn1c(=O)n(-c2ccc(C(C)(C)C#N)cc2)c2c3cc(-c4cnc5ccccc5c4)ccc3ncc21`
100
